Attribute: IC50
Target: Insulin receptor (Homo sapiens)
Test: Inhibition of GST-tagged intracellular domain of IR by homogeneous time-resolved fluorescence assay

Some solved entries appear below for comparison.
smiles: Cc1nnsc1C1=NNC(=O)/C1=C\c1cn(C)c2cccc(OCc3ccc(F)cc3)c12
readout kind: IC50
assay result: > 10 µM
--
smiles: Cn1cc(/C=C2\C(=O)NN=C2c2nccs2)c2c(OCc3ccccc3F)cccc21
readout kind: IC50
assay result: > 10 µM

Read the next record carefully.
Identify measured IC50 corresponding to `Cc1nnsc1C1=NNC(=O)/C1=C\c1cn(C)c2cccc(OCc3cccc(F)c3)c12` > 10 µM

---

Target: Insulin receptor (Homo sapiens, UniProt P06213)
Test: Inhibition of GST-tagged intracellular domain of IR by homogeneous time-resolved fluorescence assay
Type: single protein
Attribute: IC50

molecule: Cc1nnsc1C1=NNC(=O)/C1=C\c1cn(C)c2cccc(OCc3c(F)cccc3F)c12
IC50: > 1 µM

molecule: Cn1cc(/C=C2\C(=O)NN=C2c2nccs2)c2c(OCc3cccc(F)c3)cccc21
IC50: > 1 µM

molecule: CC(Oc1cccc2c1c(/C=C1\C(=O)NN=C1c1nccs1)cn2C)c1ccccc1 (stereo not given)
IC50: > 10 µM

molecule: Cc1nnsc1C1=NNC(=O)/C1=C\c1cn(C)c2cccc(OCc3ccccc3F)c12
IC50: > 10 µM

Read the next record carefully.
Identify measured IC50 corresponding to `Cc1nnsc1C1=NNC(=O)/C1=C\c1cn(C)c2cccc(OCc3ccccc3)c12` > 10 µM
